For each entry below, report its selectivity ratio value.
assay: Selectivity index, ratio of TC50 for african green monkey Vero cells to IC50 for Coxsackievirus B3 infected in african green monkey Vero cells; format: toxicity, cell-based; details: read-out: Selectivity Index
Numbers only.

COC(=O)C/C=C\[C@@H]1[C@H]2CCCN3CCC[C@@H](CN1S(=O)(=O)c1cccc(C#N)c1)[C@@H]23 ... 177

Fill in selectivity ratio for each of the 3 molecules listed.
1. COC(=O)C/C=C\[C@@H]1[C@H]2CCCN3CCC[C@@H](CN1S(=O)(=O)c1ccc(C(F)(F)F)cc1)[C@@H]23
2. COC(=O)C/C=C/[C@@H]1[C@H]2CCCN3CCC[C@@H](CN1S(=O)(=O)c1ccccc1C(F)(F)F)[C@@H]23
3. O=[N+]([O-])c1ccc(S(=O)(=O)N2C[C@@H]3CCCN4CCC[C@@H]([C@H]34)[C@H]2/C=C\CCO)cc1

1: 6.7; 2: 3.2; 3: 15.6

====

assay: Selectivity index, ratio of TC50 for african green monkey Vero cells to IC50 for Coxsackievirus B3 infected in african green monkey Vero cells; format: toxicity, cell-based; conditions: read-out: Selectivity Index
ENDPOINT NAME: selectivity ratio

Below are worked cases with known answers.
O=S(=O)(c1cccc(C(F)(F)F)c1)N1C[C@@H]2CCCN3CCC[C@@H]([C@H]23)[C@H]1/C=C\CCO ... 6.2
COC(=O)C/C=C/[C@@H]1[C@H]2CCCN3CCC[C@@H](CN1S(=O)(=O)c1cccc(C#N)c1)[C@@H]23 ... 9.9
O=C(O)CCC[C@@H]1[C@H]2CCCN3CCC[C@@H](CN1S(=O)(=O)c1ccc(C(F)(F)F)cc1)[C@@H]23 ... 5.2

Now take the following compound into account.
Please report selectivity ratio for the following compound: COC(=O)C/C=C\[C@@H]1[C@H]2CCCN3CCC[C@@H](CN1S(=O)(=O)c1ccc(C#N)cc1)[C@@H]23
36.3

====

assay: Selectivity index, ratio of TC50 for african green monkey Vero cells to IC50 for Coxsackievirus B6 infected in african green monkey Vero cells; type: toxicity, cell-based; conditions: read-out: Selectivity Index
ENDPOINT NAME: selectivity ratio
Give bare numbers.

Below are worked cases with known answers.
COC(=O)C/C=C\[C@@H]1[C@H]2CCCN3CCC[C@@H](CN1S(=O)(=O)c1cccc(C#N)c1)[C@@H]23 ... 174
COC(=O)CCC[C@@H]1[C@H]2CCCN3CCC[C@@H](CN1S(=O)(=O)c1cccc(C(F)(F)F)c1)[C@@H]23 ... 139

Now take the following compound into account.
Please report selectivity ratio for the following compound: O=[N+]([O-])c1ccccc1S(=O)(=O)N1C[C@@H]2CCCN3CCC[C@@H]([C@H]23)[C@H]1/C=C\CCO
276

====

assay: Selectivity index, ratio of TC50 for african green monkey Vero cells to IC50 for Coxsackievirus B1 infected in african green monkey Vero cells; format: toxicity, cell-based; details: read-out: Selectivity Index
ENDPOINT NAME: selectivity ratio
Give bare numbers.

O=[N+]([O-])c1ccccc1S(=O)(=O)N1C[C@@H]2CCCN3CCC[C@@H]([C@H]23)[C@H]1/C=C\CCO ... 116

Fill in selectivity ratio for each of the 2 compounds listed.
1. COC(=O)C/C=C\[C@@H]1[C@H]2CCCN3CCC[C@@H](CN1S(=O)(=O)c1cccc(C#N)c1)[C@@H]23
2. COC(=O)CCC[C@@H]1[C@H]2CCCN3CCC[C@@H](CN1S(=O)(=O)c1cccc(C(F)(F)F)c1)[C@@H]23

[188, 144]

====

test: Cytotoxicity against african green monkey Vero cells assessed as inhibition of cell growth after 24 hrs by CPE assay; type: cell-based; conditions: chlorocebus sabaeus, read-out: TC50
For each entry below, report its CC50 at 24 h value.
Answers are plain numbers, in µM.

Below are worked cases with known answers.
N#Cc1cccc(S(=O)(=O)N2C[C@@H]3CCCN4CCC[C@@H]([C@H]34)[C@H]2CCCC(=O)O)c1 ... 428
O=C(O)C/C=C\[C@@H]1[C@H]2CCCN3CCC[C@@H](CN1S(=O)(=O)c1ccc(C(F)(F)F)cc1)[C@@H]23 ... 272
O=C(O)/C=C/C[C@@H]1[C@H]2CCCN3CCC[C@@H](CN1S(=O)(=O)c1ccccc1C(F)(F)F)[C@@H]23 ... 424
COC(=O)CCC[C@@H]1[C@H]2CCCN3CCC[C@@H](CN1S(=O)(=O)c1cccc(C#N)c1)[C@@H]23 ... 288
O=C(O)C/C=C\[C@@H]1[C@H]2CCCN3CCC[C@@H](CN1S(=O)(=O)c1cccc([N+](=O)[O-])c1)[C@@H]23 ... 445
COC(=O)C/C=C\[C@@H]1[C@H]2CCCN3CCC[C@@H](CN1S(=O)(=O)c1cccc(C#N)c1)[C@@H]23 ... 543
N#Cc1ccccc1S(=O)(=O)N1C[C@@H]2CCCN3CCC[C@@H]([C@H]23)[C@H]1C/C=C/C(=O)O ... 466
COC(=O)C/C=C\[C@@H]1[C@H]2CCCN3CCC[C@@H](CN1S(=O)(=O)c1cccc(C(F)(F)F)c1)[C@@H]23 ... 198

Fill in CC50 at 24 h for each of the 5 molecules listed.
1. O=[N+]([O-])c1ccccc1S(=O)(=O)N1C[C@@H]2CCCN3CCC[C@@H]([C@H]23)[C@H]1/C=C\CCO
2. COC(=O)CCC[C@@H]1[C@H]2CCCN3CCC[C@@H](CN1S(=O)(=O)c1ccccc1[N+](=O)[O-])[C@@H]23
3. COC(=O)CCC[C@@H]1[C@H]2CCCN3CCC[C@@H](CN1S(=O)(=O)c1cccc(C(F)(F)F)c1)[C@@H]23
4. O=S(=O)(c1cccc(C(F)(F)F)c1)N1C[C@@H]2CCCN3CCC[C@@H]([C@H]23)[C@H]1/C=C\CCO
5. COC(=O)C/C=C\[C@@H]1[C@H]2CCCN3CCC[C@@H](CN1S(=O)(=O)c1cccc([N+](=O)[O-])c1)[C@@H]23

[354, 399, 193, 93.5, 112]

====

For each entry below, report its CC50 at 24 h value.
assay: Cytotoxicity against african green monkey Vero cells assessed as inhibition of cell growth after 24 hrs by CPE assay; type: cell-based; details: chlorocebus sabaeus, read-out: TC50
Give bare numbers, in µM.

O=S(=O)(c1ccc(C(F)(F)F)cc1)N1C[C@@H]2CCCN3CCC[C@@H]([C@H]23)[C@H]1CCCCO ... 233

Fill in CC50 at 24 h for each of the 2 compounds listed.
1. COC(=O)C/C=C/[C@@H]1[C@H]2CCCN3CCC[C@@H](CN1S(=O)(=O)c1ccccc1C#N)[C@@H]23
2. COC(=O)C/C=C\[C@@H]1[C@H]2CCCN3CCC[C@@H](CN1S(=O)(=O)c1ccc(C#N)cc1)[C@@H]23

[80.3, 292]

====

test system: Coxsackievirus; experiment: Antiviral activity against Coxsackievirus B3 infected in african green monkey Vero cells assessed as reduction in viral-induced cytopathic effect; type: functional, organism-based
ENDPOINT NAME: IC50
Answer with the figure and its unit, nothing else.

COC(=O)CCC[C@@H]1[C@H]2CCCN3CCC[C@@H](CN1S(=O)(=O)c1ccccc1[N+](=O)[O-])[C@@H]23 ... 23.9 µM
COC(=O)C/C=C/[C@@H]1[C@H]2CCCN3CCC[C@@H](CN1S(=O)(=O)c1ccccc1C(F)(F)F)[C@@H]23 ... 11.9 µM
N#Cc1cccc(S(=O)(=O)N2C[C@@H]3CCCN4CCC[C@@H]([C@H]34)[C@H]2/C=C\CCO)c1 ... 5.47 µM

Now take the following compound into account.
Please report IC50 for the following compound: N#Cc1ccccc1S(=O)(=O)N1C[C@@H]2CCCN3CCC[C@@H]([C@H]23)[C@H]1/C=C/CC(=O)O
22.7 µM

====

experiment: Selectivity index, ratio of TC50 for african green monkey Vero cells to IC50 for Coxsackievirus B3 infected in african green monkey Vero cells; assay type: toxicity, cell-based; settings: read-out: Selectivity Index
Parameter threshold = 40. Response is met when selectivity ratio meets or exceeds it, else not met.

O=C(O)C/C=C\[C@@H]1[C@H]2CCCN3CCC[C@@H](CN1S(=O)(=O)c1ccc(C(F)(F)F)cc1)[C@@H]23 ... not met
COC(=O)C/C=C/[C@@H]1[C@H]2CCCN3CCC[C@@H](CN1S(=O)(=O)c1ccccc1C#N)[C@@H]23 ... not met

Threshold query (selectivity ratio >= 40) on COC(=O)CCC[C@@H]1[C@H]2CCCN3CCC[C@@H](CN1S(=O)(=O)c1cccc(C(F)(F)F)c1)[C@@H]23
met

Threshold query (selectivity ratio >= 40) on N#Cc1cccc(S(=O)(=O)N2C[C@@H]3CCCN4CCC[C@@H]([C@H]34)[C@H]2CCCCO)c1
not met

Threshold query (selectivity ratio >= 40) on N#Cc1cccc(S(=O)(=O)N2C[C@@H]3CCCN4CCC[C@@H]([C@H]34)[C@H]2/C=C\CCO)c1
not met

Threshold query (selectivity ratio >= 40) on O=S(=O)(c1ccc(C(F)(F)F)cc1)N1C[C@@H]2CCCN3CCC[C@@H]([C@H]23)[C@H]1CCCCO
not met

Threshold query (selectivity ratio >= 40) on N#Cc1ccccc1S(=O)(=O)N1C[C@@H]2CCCN3CCC[C@@H]([C@H]23)[C@H]1/C=C\CC(=O)O
not met

// data source = ChEMBL document CHEMBL3425484
